Biological target: T1, Glycoprotein VI extracellular domain (Gln21-Lys267) (Homo sapiens, UniProt Q9HCN6 SEQ:1-247)
T1 chain: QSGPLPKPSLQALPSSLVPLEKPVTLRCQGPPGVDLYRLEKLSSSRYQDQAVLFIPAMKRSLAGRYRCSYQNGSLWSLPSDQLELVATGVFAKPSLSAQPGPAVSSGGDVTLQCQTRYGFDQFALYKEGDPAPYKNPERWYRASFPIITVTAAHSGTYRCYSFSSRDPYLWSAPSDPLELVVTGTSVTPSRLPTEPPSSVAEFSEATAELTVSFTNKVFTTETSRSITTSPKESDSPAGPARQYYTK
Assay: filter
Conditions: tags: C-terminal His6; R&D Systems 3627-GP; label: 5'-32P
pKd: −log10 of the molar value.
pKd listing for selected binders.

Record excerpt, results attached:
>>> observed_measurement("GGGAGGACGGCGCGCCUGGCAUAAGCCUCCC (ssRNA, RB490 with 2'-OMe G6,A7,C8) [RB517]")
"< 7.40"
>>> observed_measurement("GGAGGACGGCGCGCCUGGCAUAAGCCUCC (ssRNA, RB540 with PS A6-C7) [RB547]")
7.81
>>> observed_measurement("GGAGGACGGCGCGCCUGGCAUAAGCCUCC (ssRNA, RB540 with PS C7-G8 and G8-G9) [RB561]")
"> 8.00"
>>> observed_measurement("GGGAGGACGGCGCGCCUGGCAUAAGCCUCCC (ssRNA, RB490 with 2'-OMe A21) [RB503]")
"> 8.00"
>>> observed_measurement("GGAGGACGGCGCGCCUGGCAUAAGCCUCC (ssRNA, RB551 with PS C7-G8) [RB554]")
"> 8.00"

Give its pKd value. Item: GGGAGGACGGCGUCUAAGCGCCUGGCAUAAGCCUCCC (ssRNA, 2'-F C and U; 2'-OH A and G) [EF-31 T6 (RB443)]
7.81

Give its pKd value. Item: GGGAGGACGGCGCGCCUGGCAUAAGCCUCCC (ssRNA, RB490 with 2'-OMe A24) [RB506]
> 8.00

Give its pKd value. Item: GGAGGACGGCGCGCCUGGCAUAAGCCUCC (ssRNA, RB551 with PS G8-G9) [RB555]
> 8.00

Give its pKd value. Item: GGGAGGACGAUGCGGUCUAAGCUGCGUCUGGCAUAAGCCUCACC (ssRNA, 2'-F C and U; 2'-OH A and G) [EF-31 T2 (RB439)]
7.81

Give its pKd value. Item: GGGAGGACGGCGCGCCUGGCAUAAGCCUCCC (ssRNA, RB520 with 2'-OMe A7,G9) [RB523]
< 7.40

Give its pKd value. Item: GGGAGGACGAUGCGGUCUAAGCUGCGUCUGGCAUAAGCCUCACCUACU (ssRNA, 2'-F C and U; 2'-OH A and G) [EF-31 T1 (RB436)]
7.81

Give its pKd value. Item: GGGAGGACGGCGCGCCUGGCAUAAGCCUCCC (ssRNA, RB490 with 2'-OMe U22) [RB504]
7.81

Give its pKd value. Item: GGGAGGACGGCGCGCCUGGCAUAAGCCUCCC (ssRNA, RB490 with 2'-OMe G6) [RB491]
> 8.00
